Source of measurements: PubChem BioAssay (Tox21)

Test: qHTS assay to identify small molecule antagonists of the estrogen related receptor signaling pathway with the pleiotropic PPARgamma coactivator (PGC) cell viability counter screen (AID 1224822;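 further: viability read after 17.5 h compound exposure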)
Settings: ERR/PGC reporter cell line viability counter screen; series mostly up to 46.1 µM
Inconclusive results are not listed. The source made the active and inactive calls. The call rests on the fitted dose curve; in most records, active means well fitted cell-killing curve with a large enough effect in the repeat runs; inconclusive means weak or mixed curves, or effect the other way; inactive means flat fitted curve, though single readings scatter.
Return exactly one item of active, inactive

Entry Cc1ccc(S(=O)(=O)N[C@@H](Cc2ccccc2)C(=O)CCl)cc1 : call = ?
active

Entry NCCS(=O)O : call = ?
inactive

Entry OC[C@H]1NC[C@@H](O)[C@@H]1O : call = ?
inactive

Entry COc1cc2nc(N3CCCN(C)CC3)nc(NC3CCN(Cc4ccccc4)CC3)c2cc1OC : call = ?
active

Entry Nc1nc(OCC2CCCCC2)c2[nH]cnc2n1 : call = ?
inactive

Entry S=C(S)N1CCCC1 : call = ?
active

Entry Cn1cnc2c(NCc3ccccc3)nc(NCCO)nc21 : call = ?
inactive

Entry CCCN(CCc1ccccc1)C1CCc2c(O)cccc2C1 (stereo not drawn) : call = ?
inactive

Entry CCOC(=O)C12CC1/C(=N/O)c1ccccc1O2 (stereo not drawn) : call = ?
inactive

Entry N[C@@H](Cc1cnc[nH]1)C(=O)O : call = ?
inactive

Entry CSC(N)=NCCC[C@H](N)C(=O)O : call = ?
inactive

Entry CC(=O)O[C@H]1Cc2ccccc2N(C(N)=O)c2ccccc21 : call = ?
inactive

Entry CN1C2CCC1CC(OC(=O)C(CO)c1ccccc1)C2 (stereo not drawn) : call = ?
inactive

----------
Assay: qHTS RealTime-Glo MT Cell Viability Assay in HepG2 cells - 16 hour (AID 1224885); further: nearly all actives have a fitted effect of over 50% in size
Conditions: RealTime-Glo luminescence; series mostly up to 76.8 µM
Records with an inconclusive call do not appear. Activity calls are given as the source filed them. Calls follow the shape of the dose curve; as a rule, active = well fitted cell-killing curve with a large enough effect in the repeat runs; inconclusive = weak or mixed curves; inactive = flat fitted curve, though single readings scatter.
Return exactly one item of active, inactive

Entry CC(C=O)c1ccccc1 (stereo unspecified) : call = ?
inactive

Entry ClC(c1ccccc1)(c1ccccc1)c1ccccc1 : call = ?
inactive

Entry CCOc1nc(F)cc2nc(S(=O)(=O)Nc3c(Cl)cccc3C(=O)OC)nn12 : call = ?
inactive

Entry CN(C)CCOc1ccc(/C(=C(/CCCl)c2ccccc2)c2ccccc2)cc1 : call = ?
active

Entry CCN(CC)c1ccc2c(c1)Oc1cc(N(CC)CC)ccc1C21OC(=O)c2ccccc21 : call = ?
inactive

Entry Nc1ccc(Oc2cccc(Oc3ccc(N)cc3)c2)cc1 : call = ?
inactive

----------
Molecular target: Estrogen receptor (Homo sapiens) (UniProt P03372)
Sequence (P03372 whole entry, looked up): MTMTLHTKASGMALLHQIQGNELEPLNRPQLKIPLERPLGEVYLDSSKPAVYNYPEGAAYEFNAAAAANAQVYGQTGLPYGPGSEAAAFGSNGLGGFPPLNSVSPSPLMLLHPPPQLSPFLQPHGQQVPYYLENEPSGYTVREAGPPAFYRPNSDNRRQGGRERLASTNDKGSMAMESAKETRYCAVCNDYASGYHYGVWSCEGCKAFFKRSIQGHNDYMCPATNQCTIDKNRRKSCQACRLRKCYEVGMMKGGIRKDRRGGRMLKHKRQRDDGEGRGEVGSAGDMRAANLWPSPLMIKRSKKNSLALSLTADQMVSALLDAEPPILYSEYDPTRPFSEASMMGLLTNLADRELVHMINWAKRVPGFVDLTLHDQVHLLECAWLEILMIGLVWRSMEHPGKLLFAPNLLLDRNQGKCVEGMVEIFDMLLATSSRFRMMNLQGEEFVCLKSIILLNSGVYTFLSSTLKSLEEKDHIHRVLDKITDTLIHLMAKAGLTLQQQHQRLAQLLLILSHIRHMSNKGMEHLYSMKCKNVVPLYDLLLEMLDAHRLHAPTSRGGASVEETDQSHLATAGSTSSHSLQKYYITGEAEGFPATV
Assay: qHTS assay to identify small molecule antagonists of the estrogen receptor alpha (ER-alpha) signaling pathway using the BG1 cell line in the presence of 0.1 nM 17-beta-estradiol (AID 1259244); further: nearly all actives have a fitted effect of over 50% in size
Details: VM7Luc4E2 (BG1) ERE-luciferase, antagonist mode, 0.1 nM E2, 22 h; series mostly up to 92.4 µM
Description: National Center for Advancing Translational Sciences [NCATS] NIH Chemical Genomics Center [NCGC] U.S. Environmental Protection Agency [EPA] National Institutes of Environmental Health Sciences [NIEHS] National Toxicology Program [NTP] U.S. Food and Drug Administration [FDA] Estrogen receptor (ER), a member of the nuclear hormone receptor plays an important role in development, metabolic homeostasis and reproduction. […]
Inconclusive results are not listed. Calls of active or inactive are those of the source. Calls follow the shape of the dose curve; as a rule, active = well fitted inhibition curve with a large enough effect in the repeat runs; inconclusive = weak or mixed curves; inactive = no such curve, though single readings can be large or run the other way.
Return exactly one item of active, inactive

Entry C/C(=N\[Si](C)(C)C)O[Si](C)(C)C : call = ?
inactive

Entry CC(=O)[C@]1(O)Cc2c(O)c3c(c(O)c2[C@@H](O[C@H]2C[C@H](N)[C@H](O)[C@H](C)O2)C1)C(=O)c1ccccc1C3=O : call = ?
inactive

Entry CCOc1ccc([N+](=O)[O-])cc1 : call = ?
inactive

Entry Nc1c(Br)cc([N+](=O)[O-])cc1Br : call = ?
inactive

Entry CCCCCCCCCC[N+](C)(CCCCCCCCCC)CCC[Si](OC)(OC)OC : call = ?
inactive

Entry CC(Cc1ccc(O)c(O)c1)C(C)Cc1ccc(O)c(O)c1 (stereo not given) : call = ?
inactive

Entry O=C(Cl)c1ccc(Cl)cc1Cl : call = ?
inactive

Entry O=C(CCN1CCC(c2ccccc2)C1)c1ccc2c(c1)OCCO2 (stereo not given) : call = ?
inactive

Entry COc1cc(OC)nc(NC(=O)NS(=O)(=O)Nc2ccccc2C(=O)N(C)C)n1 : call = ?
inactive

Entry CCCCCCCCCCCCCCCCC(C(=O)O)C(O)(CC(=O)O)C(=O)O (stereo not given) : call = ?
inactive

Entry CC/C=C(\C)C=O : call = ?
inactive

Entry CN(C/C=C/c1ccccc1)Cc1cccc2ccccc12 : call = ?
inactive

Entry Nc1cc([N+](=O)[O-])cc(Cl)c1O : call = ?
inactive

Entry N#Cc1ccc(C/C(=N/NC(=O)Nc2ccc(OC(F)(F)F)cc2)c2cccc(C(F)(F)F)c2)cc1 : call = ?
inactive

Entry CCc1cccc(C)c1N(C(=O)C(=O)O)C(C)COC (stereo not given) : call = ?
inactive

Entry CC(C)C(=O)C(C)C : call = ?
inactive

Entry CC(c1cc(C(C)(C)C)cc(C(C)(C)C)c1O)c1cc(C(C)(C)C)cc(C(C)(C)C)c1O : call = ?
inactive

Entry Oc1ccc(Cl)cc1C1CCCC1 : call = ?
inactive

Entry CN[C@H]1CC[C@@H](c2ccc(Cl)c(Cl)c2)c2ccc(S(N)(=O)=O)cc21 : call = ?
active

Entry CCN(CC)c1ccc(C=O)cc1 : call = ?
inactive

----------
Experiment: qHTS RealTime-Glo MT Cell Viability Assay in HepG2 cells - 8 hour (AID 1224873); further: nearly all actives have a fitted effect of over 55% in size
Conditions: RealTime-Glo luminescence; series mostly up to 76.8 µM
Inconclusive results are not listed. Active and inactive are the calls of the source. The call rests on the fitted dose curve; in most records, active means well fitted cell-killing curve with a large enough effect in the repeat runs; inconclusive means weak or mixed curves; inactive means flat fitted curve, though single readings scatter.
Return exactly one item of active, inactive

Entry CCCOC(=O)c1ccc(O)cc1 : call = ?
inactive

Entry [Cl][Eu]([Cl])[Cl] : call = ?
inactive

Entry CCc1cccc(CC)c1 : call = ?
inactive

Entry Brc1cc(Br)cc(Br)c1 : call = ?
inactive

Entry O=C(N[C@H](CO)[C@H](O)c1ccc([N+](=O)[O-])cc1)C(Cl)Cl : call = ?
inactive

Entry Nc1c(Br)cc([N+](=O)[O-])cc1Br : call = ?
inactive

Entry CCN(CC)c1ccc(C=O)cc1 : call = ?
inactive

Entry CC(C)(C)C1=CC(=O)C(C(C)(C)C)=CC1=O : call = ?
inactive

Entry Oc1ccc(Cl)cc1C1CCCC1 : call = ?
inactive

Entry c1ccc(C[P+](c2ccccc2)(c2ccccc2)c2ccccc2)cc1 : call = ?
inactive

Entry Clc1ccc2c(Cl)ccnc2c1 : call = ?
inactive

Entry Cn1ccnc1 : call = ?
inactive

Entry Cc1ccc2n[nH]nc2c1 : call = ?
inactive

Entry CCCCCCCCCC[N+](C)(CCCCCCCCCC)CCC[Si](OC)(OC)OC : call = ?
active

Entry COc1cc([C@@H]2c3cc4c(cc3[C@@H](O[C@@H]3O[C@@H]5CO[C@@H](C)O[C@H]5[C@H](O)[C@H]3O)[C@H]3COC(=O)[C@H]23)OCO4)cc(OC)c1O : call = ?
inactive

Entry CC/C=C\C/C=C\C/C=C\CCCCCCCC(=O)OC : call = ?
inactive

Entry Cc1cc(F)ccc1-c1cc(N2CC[C@@H](O)[C@H]2CO)ncc1N(C)C(=O)C(C)(C)c1cc(C(F)(F)F)cc(C(F)(F)F)c1 : call = ?
active

Entry CC(C)=CCC[C@H](C)CC=O : call = ?
inactive

Entry CC(CC(C)(C)C)CC(C)(C)CC(C)(C)C (configuration not stated) : call = ?
inactive

Entry Oc1ccc2c(c1)CCC2 : call = ?
inactive

Entry [Cl][Dy]([Cl])[Cl] : call = ?
inactive

Entry COCCC(=O)OC : call = ?
inactive

Entry O=C(Nc1ccc([N+](=O)[O-])cc1)Nc1ccc([N+](=O)[O-])cc1 (tested in a mixture with another compound) : call = ?
inactive

Entry CC(=O)CC(N)=O : call = ?
inactive

Entry CCCCC/C=C\C=C\C(=O)OCC : call = ?
inactive

Entry CCc1cccc(C)c1N(C(=O)C(=O)O)C(C)COC (configuration not stated) : call = ?
inactive

Entry O=C(Nc1ccccc1)c1cc(Cl)ccc1O : call = ?
inactive

----------
Assay: qHTS assay for small molecule agonists of the p53 signaling pathway - cell viability (AID 651633); further: nearly all actives have a fitted effect of over 30% in size
Settings: p53RE-bla HCT-116 viability, ATP luminescence, 16 h; series mostly up to 83.3 µM
Results filed as inconclusive are left out. Activity calls are given as the source filed them. The call rests on the fitted dose curve.
Return exactly one item of active, inactive

Entry COc1ccc([C@@H]2CC(=O)c3c(O)cc(O[C@@H]4O[C@H](CO[C@@H]5O[C@@H](C)[C@H](O)[C@@H](O)[C@H]5O)[C@@H](O)[C@H](O)[C@H]4O)cc3O2)cc1O : call = ?
inactive

Entry Cc1cc(F)ccc1-c1cc(N2CC[C@@H](O)[C@H]2CO)ncc1N(C)C(=O)C(C)(C)c1cc(C(F)(F)F)cc(C(F)(F)F)c1 : call = ?
active

Entry CC(C)(Oc1ccc(C2CCCc3ccccc32)cc1)C(=O)O (configuration not stated) : call = ?
inactive

Entry CC(C)(C)c1ccc2c(S(=O)(=O)O)c(C(C)(C)C)ccc2c1 : call = ?
inactive

Entry CCOC(=O)Cc1ccc(-c2ccccc2)cc1 : call = ?
inactive

Entry Cc1ccc(Cl)c(N)c1Cl : call = ?
inactive

Entry O=C1[O][Bi][O]c2ccccc21 : call = ?
inactive

Entry COc1c(O)cc2c(c1O)[C@@H]1O[C@H](CO)[C@@H](O)[C@H](O)[C@H]1OC2=O : call = ?
inactive

Entry OCCCNc1ccccc1 : call = ?
inactive

Entry C[N+]1(CCCCC[N+]2(C)CCCC2)CCCC1 : call = ?
inactive

Entry O=P(O)(O)CP(=O)(O)O : call = ?
inactive

Entry CCCOC(=O)c1ccc(O)cc1 : call = ?
inactive
